tested on: AP-1 induced transcriptional activity; test: Cellular Transrepressional Assay: AP-1 luciferase reporter in PMA-activated A549 cells; type: cell-based; settings: Homo sapiens, A549, 7 h, maximum inhibition, Cellular Transrepression Assay; read-out: AP-1 Max % inh (Cellular Transrepression Assay)
Please use yes whenever Emax is not below 50%, and no whenever it is.

compound: COc1ccc(C(c2ccc(OC)cc2)C(C)(C)C(=O)Nc2nc(C(C)(C)C)cs2)cc1
target-or-system: AP-1 induced transcriptional activity
classification: no
--
compound: CC(C)(C(=O)Nc1nccs1)[C@@H](c1ccccc1)c1ccc(O)cc1
target-or-system: AP-1 induced transcriptional activity
classification: yes
--
compound: Cc1cnc(NC(=O)C(C)(C)C(c2ccccc2)c2cccc(O)c2)s1 (stereo not shown)
target-or-system: AP-1 induced transcriptional activity
classification: no
--
compound: CC(=O)Oc1ccc([C@H](c2ccccc2)C(C)(C)C(=O)Nc2nccs2)cc1
target-or-system: AP-1 induced transcriptional activity
classification: no
--
compound: O=C(Nc1nccs1)C1(C(c2ccccc2)c2ccccc2)CCCC1
target-or-system: AP-1 induced transcriptional activity
classification: no

For this compound, is measured Emax 50% or higher? `CC(C)(C(=O)Nc1nccs1)[C@@H](c1ccccc1)c1ccc(OC(=O)c2ccoc2)cc1` no

For this compound, is measured Emax 50% or higher? CC(C)c1cccc(-c2ccc(C(c3ccccc3)C(C)(C)C(=O)Nc3nncs3)cc2)c1 (stereo not shown) no

For this compound, is measured Emax 50% or higher? `CC(C)(C(=O)Nc1nccs1)[C@@H](c1ccccc1)c1ccc(O)c(C#N)c1` yes

For this compound, is measured Emax 50% or higher? `CC(C)(C(=O)Nc1nncs1)[C@H](c1ccccc1)c1ccc(O)cc1` yes

For this compound, is measured Emax 50% or higher? CC(C)(C(=O)Nc1nncs1)C(c1ccccc1)c1ccc(-c2ccc(C(=O)N3CCOCC3)cc2)cc1 (stereo not shown) no

For this compound, is measured Emax 50% or higher? COc1cccc(C(c2ccccc2)C(C)(C)C(=O)Nc2nc(CCc3ccccc3)cs2)c1 (stereo not shown) no

For this compound, is measured Emax 50% or higher? CC(C)(C(=O)Nc1nc(Cc2ccc(-c3ccncc3)cc2)cs1)C(c1ccccc1)c1ccc(F)cc1 (stereo not shown) yes

For this compound, is measured Emax 50% or higher? COc1cccc(C(c2ccccc2)C(C)(C)C(=O)Nc2ncc(C)s2)c1 (stereo not shown) no

For this compound, is measured Emax 50% or higher? COc1ccc([C@H](c2ccccc2)C(C)(C)C(=O)Nc2nc(Cc3ccc(-c4ccncc4)cc3)cs2)cc1 (stereo in doubt) yes

For this compound, is measured Emax 50% or higher? COc1ccc(Cc2csc(NC(=O)C(C)(C)C(c3ccccc3)c3ccc(OC)cc3)n2)cc1 (stereo not shown) yes

For this compound, is measured Emax 50% or higher? `COc1ccc2c(-c3csc(NC(=O)C(C)(C)C(c4ccccc4)c4ccccc4)n3)cccc2c1` yes
